experiment: protein stability index of a GFP-peptide fusion (GPS, HEK-293T) (PSI 1-6); higher = more stable; settings: treatment: DMSO; c terminus: a fixed tail appended;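 further: 24-mer peptide tiles fused after GFP, lentivirally expressed, FACS-sorted into six equal bins by GFP/DsRed ratio, decoded by Illumina sequencing, PSI is the read-weighted mean bin number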
Binary call on protein stability index: Y from 3 upward, N beneath that.

| Sequence Data | Class Assignment |
| --- | --- |
| VRERDRLGNEYPKLHYPELYVLKG [CDC25A] | N |
| LLRQQLMRAQAQEQERRERREQAA [TFE3] | Y |
| AGHRRPAGGIRESKESSKEKKLTV [C22orf31] | Y |
| AEAGHVDICHMLVQFCRLGSPRSR [EHMT1] | N |
| SLSAGEKPGFLAPRDLPKHTPLIS [RASAL3] | Y |
| KHPRQTLEVINLLRKHRELCDVVL [KLHL20] | N |
| NPLIASSFSLVKLVLRRQLKNKCC [C22orf31] | N |
| NIPQMADTLFERATNSSWVVVFKA [SNAP91] | N |
| ASLKSEAESLKGKLEEERAKLHDV [GNB5] | Y |
| RLIATKNPEEIRGGGLLKYSNLLV [TENT5C] | N |
| LPELLLGALPVGSNLTSNLASLVS [RETREG3] | N |
| LNVGNERYVFEAVIRWIAHDTEIR [GAN] | N |
| PPNTRVLRVLPNLPCVVQEGAIVM [PYCR3] | N |
| AWFGFAGTPGYLSPEVLRKDPYGK [CAMK2A] | N |
| YSDNPCSCSQSHCCSRYLCMGAMS [SPRY1] | N |
| CLAHLGEKVSQELKEPLHKALQML [BCL2L13] | N |
| RYCDSILREMLSKKHAAYAWPFYK [BRD3] | N |
| LAQTRAEGQRQAQEYEALLNIKVK [KRT18] | Y |
| CDDYFFIAHRGERRGIGGIFFDDL [CPOX] | N |
| LNLGSGTGYLSSMVGLILGPFGVN [PCMTD2] | N |
| ERRPRRVEAERPHSLIGVIRETVL [FAM189A2] | Y |
| KCFHEIITIGYRVYHSYDLPWFRT [CDS1] | N |
| HMFVWGGYKSNQVRGLYDFYLPRE [KLHDC2] | N |
| PDITSSRYRGLPAPGPSPADKKRS [WAS] | Y |
| ELETVDFKDKLEETKGQINNSIKD [SERPINB5] | Y |

Values from the supplement of paper PMC10567573
